Record form. Attribute: Mouse P-gp ER. Fill in for each entry.
MEASURED TARGET: UniProt P21447
Sequence (P21447 whole entry): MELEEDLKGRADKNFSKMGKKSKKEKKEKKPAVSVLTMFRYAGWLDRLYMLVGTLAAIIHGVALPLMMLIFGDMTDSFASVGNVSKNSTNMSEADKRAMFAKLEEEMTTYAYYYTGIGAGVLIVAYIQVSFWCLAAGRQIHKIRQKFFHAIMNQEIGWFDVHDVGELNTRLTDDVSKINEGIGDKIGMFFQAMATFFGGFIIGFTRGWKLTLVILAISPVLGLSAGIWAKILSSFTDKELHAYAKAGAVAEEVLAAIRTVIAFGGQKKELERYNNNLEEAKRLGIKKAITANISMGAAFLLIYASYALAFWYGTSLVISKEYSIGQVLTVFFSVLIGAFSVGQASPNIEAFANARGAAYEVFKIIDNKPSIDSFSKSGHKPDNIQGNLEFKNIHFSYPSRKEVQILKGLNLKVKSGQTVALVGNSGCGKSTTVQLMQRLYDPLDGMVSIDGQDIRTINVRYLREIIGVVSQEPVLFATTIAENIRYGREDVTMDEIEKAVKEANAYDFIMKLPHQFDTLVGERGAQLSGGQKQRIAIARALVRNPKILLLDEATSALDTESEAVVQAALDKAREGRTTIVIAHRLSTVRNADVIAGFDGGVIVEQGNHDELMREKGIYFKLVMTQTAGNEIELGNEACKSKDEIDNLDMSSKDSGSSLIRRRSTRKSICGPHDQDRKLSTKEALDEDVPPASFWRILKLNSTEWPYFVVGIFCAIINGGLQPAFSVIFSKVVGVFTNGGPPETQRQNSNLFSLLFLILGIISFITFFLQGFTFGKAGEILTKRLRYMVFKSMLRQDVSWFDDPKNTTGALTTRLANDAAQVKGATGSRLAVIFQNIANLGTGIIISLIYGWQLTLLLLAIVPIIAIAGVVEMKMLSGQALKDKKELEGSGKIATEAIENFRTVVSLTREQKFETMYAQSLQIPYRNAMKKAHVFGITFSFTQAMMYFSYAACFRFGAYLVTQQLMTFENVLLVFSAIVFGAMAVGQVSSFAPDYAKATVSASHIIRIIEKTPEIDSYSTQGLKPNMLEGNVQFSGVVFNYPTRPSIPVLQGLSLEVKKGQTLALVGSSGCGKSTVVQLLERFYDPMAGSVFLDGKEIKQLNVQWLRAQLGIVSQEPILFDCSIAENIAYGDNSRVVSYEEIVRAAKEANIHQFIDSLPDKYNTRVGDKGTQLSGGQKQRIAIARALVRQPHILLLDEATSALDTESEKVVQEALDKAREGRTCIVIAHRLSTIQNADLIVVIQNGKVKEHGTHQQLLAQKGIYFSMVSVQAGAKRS
EXPERIMENTAL DETAILS: P-gp transport assay (mouse)
Type: in vitro ADME
RECORDED CONDITIONS: efflux ratio
Numbers only.

# count of solved cases: 4
{"SMILES TEXT": "C[C@]1(c2nc(NC(=O)c3ccc(C#N)cn3)ccc2F)N=C(N)O[C@H](C(F)(F)F)[C@@H]1F", "Mouse P-gp ER": 2.4}
{"SMILES TEXT": "C[C@]1(c2nc(NC(=O)c3ccc(C#N)cn3)ccc2F)N=C(N)O[C@H](C(F)(F)F)C1(F)F", "Mouse P-gp ER": 1.3}
{"SMILES TEXT": "Cc1cc(C#N)cnc1C(=O)Nc1ccc(F)c([C@@]2(C)N=C(N)O[C@H](C(F)(F)F)C2(F)F)n1", "Mouse P-gp ER": 1.4}
{"SMILES TEXT": "Cc1cc(C#N)cnc1C(=O)Nc1ccc(F)c([C@]2(C)C[C@@H](C(F)(F)F)OC(N)=N2)n1", "Mouse P-gp ER": 8.1}

For the next question, use this compound.
**Q:** Given the entry "Cc1cc(C#N)cnc1C(=O)Nc1ccc(F)c([C@@]2(C)N=C(N)O[C@H](C(F)(F)F)[C@@H]2F)n1" , report its measured Mouse P-gp ER.
**A:** 3.5

###

EXPERIMENTAL DETAILS: Cynomolgus monkey single dose PK study
Type: in vivo, Cynomolgus monkey (Macacaca fascicularis)
RECORDED CONDITIONS: plasma, po, read-out: t1/2 p.o. (converted)
READOUT: half-life (h)
Give bare numbers, in h.

{"COMPOUND": "C[C@]1(c2nc(NC(=O)c3ccc(C#N)cn3)ccc2F)N=C(N)O[C@H](C(F)(F)F)[C@@H]1F [Comparator 6]", "UNIT": "h", "MEASURED VALUE": 11}

For the next question, use this compound.
**Q:** Given the entry Cc1cc(C#N)cnc1C(=O)Nc1ccc(F)c([C@@]2(C)N=C(N)O[C@H](C(F)(F)F)[C@@H]2F)n1 [Example 1] , report its measured half-life.
**A:** 19

###

MEASURED TARGET: BACE1 (Homo sapiens)
EXPERIMENTAL DETAILS: Cellular Aβ-lowering assay (Abeta 40 AlphaLISA, HEK293 APP cells)
Format: cell-based
Design: endogenous in cells; host or cells: HEK293 APP cells
RECORDED CONDITIONS: HEK293 APP cells, Aβ40 in supernatant; read-out: BACE1 cell act. Aβ40 IC50
Record form. Attribute: pIC50. Fill in for each entry.
Give bare numbers, as −log10 of the molar value.

{"MOLECULE": "C[C@]1(c2nc(NC(=O)c3ccc(C#N)cn3)ccc2F)N=C(N)O[C@H](C(F)(F)F)C1(F)F [Comparator 1]", "pIC50": 6.49}
{"MOLECULE": "C[C@]1(c2nc(NC(=O)c3ccc(C#N)cn3)ccc2F)N=C(N)O[C@@H](C(F)(F)F)C1(F)F [Comparator 3]", "pIC50": 4.43}
{"MOLECULE": "Cc1cc(C#N)cnc1C(=O)Nc1ccc(F)c([C@@]2(C)N=C(N)O[C@H](C(F)(F)F)C2(F)F)n1 [Comparator 2]", "pIC50": 6.69}

# map each molecule to its pIC50
1. Cc1cc(C#N)cnc1C(=O)Nc1ccc(F)c([C@@]2(C)N=C(N)O[C@H](C(F)(F)F)[C@@H]2F)n1 [Example 1]
2. C[C@@]1(c2nc(NC(=O)c3ccc(C#N)cn3)ccc2F)C[C@@H](C(F)(F)F)OC(N)=N1 [Comparator 4]

**A:**
7.82
8.40

###

MEASURED TARGET: UniProt:Q12809
EXPERIMENTAL DETAILS: hERG patch liner assay
Assay type: cell-based
RECORDED CONDITIONS: human; hERG patchliner assay
READOUT: IC20
# do not omit the unit; it follows the number

**Q:** State its IC20 on UniProt:Q12809: Cc1cc(C#N)cnc1C(=O)Nc1ccc(F)c([C@@]2(C)N=C(N)O[C@H](C(F)(F)F)[C@@H]2F)n1 [Example 1]
**A:** 2340 nM

###

MEASURED TARGET: BACE1 (Homo sapiens)
EXPERIMENTAL DETAILS: Cellular Aβ-lowering assay (Abeta 40 AlphaLISA, HEK293 APP cells)
Format: cell-based
Parameters: endogenous in cells; host or cells: HEK293 APP cells
RECORDED CONDITIONS: read-out: cellular potency
READOUT: IC50

**Q:** State its IC50 on BACE1 (Homo sapiens): C[C@]1(c2nc(NC(=O)c3ccc(C#N)cn3)ccc2F)N=C(N)O[C@@H](C(F)(F)F)C1(F)F [Comparator 3]
**A:** > 35 µM

###

Record form. Attribute: IC20. Fill in for each entry.
MEASURED TARGET: hERG channel (Homo sapiens, UniProt Q12809)
Sequence (Q12809 whole entry): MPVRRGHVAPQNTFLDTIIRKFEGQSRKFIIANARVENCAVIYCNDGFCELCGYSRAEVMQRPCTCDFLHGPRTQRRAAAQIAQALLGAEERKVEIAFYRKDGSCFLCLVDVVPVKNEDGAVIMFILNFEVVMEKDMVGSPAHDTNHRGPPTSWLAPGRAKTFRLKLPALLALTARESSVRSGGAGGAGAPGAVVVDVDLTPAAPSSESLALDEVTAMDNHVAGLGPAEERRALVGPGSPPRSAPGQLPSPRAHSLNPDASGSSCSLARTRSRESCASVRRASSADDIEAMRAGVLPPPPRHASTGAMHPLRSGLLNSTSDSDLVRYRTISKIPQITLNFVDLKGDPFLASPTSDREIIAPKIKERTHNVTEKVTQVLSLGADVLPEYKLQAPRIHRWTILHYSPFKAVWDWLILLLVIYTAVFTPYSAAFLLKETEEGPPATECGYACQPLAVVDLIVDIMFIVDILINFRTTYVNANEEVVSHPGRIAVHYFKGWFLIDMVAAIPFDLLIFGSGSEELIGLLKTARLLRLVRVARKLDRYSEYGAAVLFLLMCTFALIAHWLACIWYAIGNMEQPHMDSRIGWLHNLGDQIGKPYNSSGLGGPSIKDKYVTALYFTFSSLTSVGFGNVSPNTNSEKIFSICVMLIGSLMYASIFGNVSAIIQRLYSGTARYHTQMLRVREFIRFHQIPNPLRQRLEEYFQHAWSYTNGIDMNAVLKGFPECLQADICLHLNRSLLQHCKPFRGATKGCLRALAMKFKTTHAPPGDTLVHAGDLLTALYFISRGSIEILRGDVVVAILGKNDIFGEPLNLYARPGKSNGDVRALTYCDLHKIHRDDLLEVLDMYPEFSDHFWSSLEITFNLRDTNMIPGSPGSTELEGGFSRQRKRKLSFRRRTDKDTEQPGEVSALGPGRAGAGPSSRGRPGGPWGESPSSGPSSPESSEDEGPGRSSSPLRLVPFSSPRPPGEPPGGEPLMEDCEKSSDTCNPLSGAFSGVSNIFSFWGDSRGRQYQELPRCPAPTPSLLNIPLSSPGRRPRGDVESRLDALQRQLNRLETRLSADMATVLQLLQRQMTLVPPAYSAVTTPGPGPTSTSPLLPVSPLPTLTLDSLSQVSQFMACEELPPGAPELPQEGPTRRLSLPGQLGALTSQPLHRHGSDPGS
EXPERIMENTAL DETAILS: hERG IC20 assay
Assay type: cell-based
RECORDED CONDITIONS: human; hERG IC20 assay
Numbers only, in nM.

# count of solved cases: 2
{"COMPOUND": "Cc1cc(C#N)cnc1C(=O)Nc1ccc(F)c([C@]2(C)C[C@@H](C(F)(F)F)OC(N)=N2)n1 [Comparator 5]", "UNIT": "nM", "IC20": 440}
{"COMPOUND": "C[C@]1(c2nc(NC(=O)c3ccc(C#N)cn3)ccc2F)N=C(N)O[C@H](C(F)(F)F)[C@@H]1F [Comparator 6]", "UNIT": "nM", "IC20": 400}

For the next question, use this compound.
**Q:** Given the entry C[C@@]1(c2nc(NC(=O)c3ccc(C#N)cn3)ccc2F)C[C@@H](C(F)(F)F)OC(N)=N1 [Comparator 4] , report its measured IC20.
**A:** 40

###

EXPERIMENTAL DETAILS: Rat single dose PK study
Type: in vivo
RECORDED CONDITIONS: Wistar, plasma, oral, 1 mg/kg, 4 h, free unbound, read-out: Plasma concentration at 4 h, free
Record form. Attribute: concentration at 4 h. Fill in for each entry.
One number for each entry, in nM.

{"MOLECULE": "C[C@]1(c2nc(NC(=O)c3ccc(C#N)cn3)ccc2F)N=C(N)O[C@H](C(F)(F)F)[C@@H]1F [Comparator 6]", "UNIT": "nM", "MEASURED VALUE": 36.3}

For the next question, use this molecule.
**Q:** Given the entry Cc1cc(C#N)cnc1C(=O)Nc1ccc(F)c([C@@]2(C)N=C(N)O[C@H](C(F)(F)F)[C@@H]2F)n1 [Example 1] , report its measured concentration at 4 h.
**A:** 12.5

###

MEASURED TARGET: hERG channel (Homo sapiens, UniProt Q12809)
EXPERIMENTAL DETAILS: hERG IC20 assay
Format: cell-based
RECORDED CONDITIONS: human, instant frozen cells (hERG channel, automated patch clamp); hERG IC20 assay
READOUT: IC20 (nM)
Answers are plain numbers, in nM.

**Q:** State its IC20 on hERG channel (Homo sapiens, UniProt Q12809): C[C@@]1(c2nc(NC(=O)c3ccc(C#N)cn3)ccc2F)C[C@@H](C(F)(F)F)OC(N)=N1 [Comparator 4]
**A:** 40

###

Record form. Attribute: pIC50. Fill in for each entry.
MEASURED TARGET: BACE1 (Homo sapiens, UniProt P56817)
Sequence (P56817 46-501): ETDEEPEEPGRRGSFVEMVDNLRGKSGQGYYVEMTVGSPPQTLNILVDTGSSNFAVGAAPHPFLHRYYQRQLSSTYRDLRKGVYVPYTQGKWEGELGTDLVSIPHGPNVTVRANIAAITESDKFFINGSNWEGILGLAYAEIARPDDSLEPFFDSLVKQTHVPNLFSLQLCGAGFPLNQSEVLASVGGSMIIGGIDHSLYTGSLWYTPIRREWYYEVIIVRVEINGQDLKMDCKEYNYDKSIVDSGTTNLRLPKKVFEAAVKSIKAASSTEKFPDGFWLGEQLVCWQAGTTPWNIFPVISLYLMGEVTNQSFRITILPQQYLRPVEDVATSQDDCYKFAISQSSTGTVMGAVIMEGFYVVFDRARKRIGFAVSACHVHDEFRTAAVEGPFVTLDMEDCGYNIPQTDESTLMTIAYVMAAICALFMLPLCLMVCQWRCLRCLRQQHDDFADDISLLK
EXPERIMENTAL DETAILS: BACE1 cell-free assay (BACE1 enzyme assay)
Assay type: biochemical
Give bare numbers, as −log10 of the molar value.

# count of solved cases: 2
{"SMILES TEXT": "Cc1cc(C#N)cnc1C(=O)Nc1ccc(F)c([C@@]2(C)N=C(N)O[C@H](C(F)(F)F)[C@@H]2F)n1", "pIC50": 7.44}
{"SMILES TEXT": "C[C@]1(c2nc(NC(=O)c3ccc(C#N)cn3)ccc2F)N=C(N)O[C@H](C(F)(F)F)C1(F)F", "pIC50": 7.54}

For the next question, use this compound.
**Q:** Given the entry "C[C@@]1(c2nc(NC(=O)c3ccc(C#N)cn3)ccc2F)C[C@@H](C(F)(F)F)OC(N)=N1" , report its measured pIC50.
**A:** 7.48
